B1: Osa-1-4 twister ribozyme (parent)
chain: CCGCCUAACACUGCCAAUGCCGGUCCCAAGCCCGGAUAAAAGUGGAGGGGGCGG

# Variants of: B1
# experiment: self-cleavage, relative activity (ratio to wild type); higher = more cleavage; co-transcriptional
measure: self-cleavage

{"mutant-designation": "C32U G13U", "self-cleavage": 0.01}

Query :: I'd like to know its self-cleavage. The variant in question is C31A G45C
Result :: 0.01

Query :: Lookup G22U U43A
Result :: 0.12

Query :: Now give it for G35A G44C too.
Result :: 0.76

Query :: Item: C21U G35U
Result :: 0.57

Query :: Also need A10C A8G , thanks.
Result :: 0.06
